test: Single and multiple oral dose pharmacokinetics of 1.5 g granulated mesalamine formulation, crossover, healthy subjects, fasting; settings: human, plasma, oral, 1.5 g, t1/2, multiple dose 1.5 g QD, after 7 days; harmonic mean (pseudo SD)
Readout: half-life (h)
Give the quantity in h, number only.

Please give measured half-life of the following entry: CC(=O)Nc1ccc(O)c(C(=O)O)c1
14

----------
assay: Single and multiple oral dose pharmacokinetics of 1.5 g granulated mesalamine formulation, crossover, healthy subjects, fasting; conditions: human, plasma, oral, 1.5 g, Cmax; single dose 1.5 g; mean ±SD
Readout: Cmax (ng/mL)
Give the value, in units of ng/mL, as a plain number.

Let me know recorded Cmax for CC(=O)Nc1ccc(O)c(C(=O)O)c1 , thanks.
2800
